Every entry's value here was drawn from ChEMBL document CHEMBL4619828.

Molecular target: Toll-like receptor 7 (Mus musculus, UniProt P58681)
Sequence (P58681 whole entry): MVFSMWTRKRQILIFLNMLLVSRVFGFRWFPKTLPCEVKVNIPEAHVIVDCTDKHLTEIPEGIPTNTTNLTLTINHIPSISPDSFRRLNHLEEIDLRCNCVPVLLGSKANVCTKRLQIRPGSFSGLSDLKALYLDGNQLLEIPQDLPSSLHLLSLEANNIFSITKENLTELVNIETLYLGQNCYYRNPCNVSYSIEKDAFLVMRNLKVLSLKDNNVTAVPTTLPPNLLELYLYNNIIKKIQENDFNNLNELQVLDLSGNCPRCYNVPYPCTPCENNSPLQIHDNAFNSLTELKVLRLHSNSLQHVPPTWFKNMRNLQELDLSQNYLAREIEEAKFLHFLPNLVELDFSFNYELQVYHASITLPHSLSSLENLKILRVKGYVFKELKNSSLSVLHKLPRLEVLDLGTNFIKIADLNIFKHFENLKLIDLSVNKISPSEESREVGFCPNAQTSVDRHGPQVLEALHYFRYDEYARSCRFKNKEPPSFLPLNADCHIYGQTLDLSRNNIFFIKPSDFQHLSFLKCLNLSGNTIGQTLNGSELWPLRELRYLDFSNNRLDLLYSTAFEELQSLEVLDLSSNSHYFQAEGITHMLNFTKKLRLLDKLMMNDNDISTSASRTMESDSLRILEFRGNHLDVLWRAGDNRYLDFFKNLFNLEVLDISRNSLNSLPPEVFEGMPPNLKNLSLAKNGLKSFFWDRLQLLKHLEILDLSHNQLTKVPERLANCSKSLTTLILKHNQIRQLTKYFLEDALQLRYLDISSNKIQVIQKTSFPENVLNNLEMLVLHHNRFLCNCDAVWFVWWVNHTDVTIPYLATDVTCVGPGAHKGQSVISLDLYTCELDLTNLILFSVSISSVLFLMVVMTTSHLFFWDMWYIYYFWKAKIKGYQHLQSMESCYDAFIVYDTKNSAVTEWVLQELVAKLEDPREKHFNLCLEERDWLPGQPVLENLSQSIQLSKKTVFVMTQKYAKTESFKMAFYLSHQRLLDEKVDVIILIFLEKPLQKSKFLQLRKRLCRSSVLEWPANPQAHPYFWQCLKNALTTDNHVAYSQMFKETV
Test: Antagonist activity at TLR7 in mouse whole blood cells assessed as inhibition of gardiquimod induced IL-6 production by ELISA
Type: cell-based
experimentalReadout: pIC50
Numbers only, as −log10 of the molar value.

# get_value(readout= pIC50, system= Toll-like receptor 7 (Mus musculus, UniProt P58681)) for CNCCN1CCC(c2ccc3[nH]c(-c4ccc(OC)c(OC)c4)c(C(C)C)c3c2)CC1
7.37

---

Molecular target: Toll-like receptor 9 (Homo sapiens, UniProt Q9NR96)
Test: Antagonist activity at human TLR9 overexpressed in HEK-Blue cells assessed as inhibition of ODN2006-induced NFkappaB and AP-1 activation preincubated for 30 mins followed by ODN2006 stimulation measured after 22 hrs by quanti-blue SEAP assay
Format: cell-based
What IC50 was measured for each of the following?
One number for each entry, in nM.

# example entries with known answers
{"inputSmiles": "CNCCN1CCC(c2ccc3[nH]c(-c4ccc(OC)c(OC)c4)c(CC(F)(F)F)c3c2)CC1", "testSystem": "Toll-like receptor 9 (Homo sapiens, UniProt Q9NR96)", "reading": 750}
{"inputSmiles": "CNCCN1CCC(c2ccc3[nH]c(-c4cccc(OC)c4)c(C)c3c2)CC1", "testSystem": "Toll-like receptor 9 (Homo sapiens, UniProt Q9NR96)", "reading": 1870}

We next turn to a different compound, shown below.
# get_value(readout='IC50', item= CNCCN1CCC(c2ccc3[nH]c(-c4ccc(OC)cc4OC)c(C)c3c2)CC1 )
2330

---

What IC50 was measured for each of the following?
Molecular target: Toll-like receptor 9 (Homo sapiens, UniProt Q9NR96)
Sequence (Q9NR96 whole entry): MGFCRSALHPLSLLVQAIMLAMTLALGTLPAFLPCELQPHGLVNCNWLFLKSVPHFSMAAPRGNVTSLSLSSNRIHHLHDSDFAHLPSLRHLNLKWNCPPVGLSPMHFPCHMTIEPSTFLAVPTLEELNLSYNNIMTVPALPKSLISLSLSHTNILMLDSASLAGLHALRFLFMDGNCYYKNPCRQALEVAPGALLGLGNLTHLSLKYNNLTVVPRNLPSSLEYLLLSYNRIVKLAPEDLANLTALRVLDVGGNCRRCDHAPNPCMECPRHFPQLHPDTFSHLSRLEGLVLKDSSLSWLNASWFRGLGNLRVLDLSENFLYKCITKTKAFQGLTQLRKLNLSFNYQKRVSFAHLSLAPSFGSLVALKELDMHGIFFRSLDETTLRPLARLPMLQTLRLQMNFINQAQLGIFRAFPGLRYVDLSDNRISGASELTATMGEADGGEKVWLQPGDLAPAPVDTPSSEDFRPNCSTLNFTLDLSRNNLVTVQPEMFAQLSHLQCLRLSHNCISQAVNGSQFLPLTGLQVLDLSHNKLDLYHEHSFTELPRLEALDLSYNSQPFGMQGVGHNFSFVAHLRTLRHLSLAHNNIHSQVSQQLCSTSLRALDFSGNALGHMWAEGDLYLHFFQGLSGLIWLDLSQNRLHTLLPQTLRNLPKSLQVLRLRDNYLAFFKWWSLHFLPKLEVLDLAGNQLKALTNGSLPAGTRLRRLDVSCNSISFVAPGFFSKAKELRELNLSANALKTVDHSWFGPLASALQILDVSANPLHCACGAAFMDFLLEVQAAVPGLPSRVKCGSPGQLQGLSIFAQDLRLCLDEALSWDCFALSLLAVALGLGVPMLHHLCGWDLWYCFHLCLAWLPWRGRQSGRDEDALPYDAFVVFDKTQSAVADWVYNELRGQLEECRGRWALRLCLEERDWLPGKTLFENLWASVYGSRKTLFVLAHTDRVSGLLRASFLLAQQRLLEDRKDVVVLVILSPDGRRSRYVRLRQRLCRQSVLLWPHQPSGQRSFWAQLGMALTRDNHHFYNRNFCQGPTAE
Assay: Antagonist activity at human TLR9 overexpressed in HEK-Blue cells assessed as inhibition of ODN2006-induced NFkappaB and AP-1 activation preincubated for 30 mins followed by ODN2006 stimulation measured after 22 hrs by quanti-blue SEAP assay
Format: cell-based
One number for each entry, in nM.

# map each compound to its IC50
1. COc1ccc(-c2[nH]c3ccc(C4CCNCC4)cc3c2C)cc1OC
2. CNCCN1CCC(c2ccc3[nH]c(-c4ccccc4Cl)c(F)c3c2)CC1
3. CNCCN1CCC(c2ccc3[nH]c(-c4cccc(OC)c4OC)c(C)c3c2)CC1
4. CNCCN1CCC(c2ccc3[nH]c(-c4ccc(OC)c(OC)c4)c(C)c3c2)CC1

[4850, 21700, 2200, 430]

# get_value(readout='IC50', item= CNCCN1CCC(c2ccc3[nH]c(-c4ccccc4)c(C)c3c2)CC1 )
1800

---

Experiment: Cmax in mouse at 15 mg/kg, po
Format: ADME, organism-based
Set-up: dose 15 mg/kg, route oral
Conditions: in vivo
experimentalReadout: Cmax (nM)
Give bare numbers, in nM.

# get_value(readout='Cmax', item= CNCCN1CCC(c2ccc3[nH]c(-c4ccc(OC)c(OC)c4)c(C(C)C)c3c2)CC1 )
1630

---

Test: Terminal half life in mouse at 3 mg/kg, iv
Format: ADME, organism-based
Settings: in vivo, read-out: beta t1/2 (converted)
experimentalReadout: half-life (h)
Numbers only, in h.

# get_value(readout='half-life', item= CNCCN1CCC(c2ccc3[nH]c(-c4ccc(OC)c(OC)c4)c(C(C)C)c3c2)CC1 )
32
